# targetEntity: human Y2 receptor (human) (UniProt P49146)
# Sequence (P49146 whole entry): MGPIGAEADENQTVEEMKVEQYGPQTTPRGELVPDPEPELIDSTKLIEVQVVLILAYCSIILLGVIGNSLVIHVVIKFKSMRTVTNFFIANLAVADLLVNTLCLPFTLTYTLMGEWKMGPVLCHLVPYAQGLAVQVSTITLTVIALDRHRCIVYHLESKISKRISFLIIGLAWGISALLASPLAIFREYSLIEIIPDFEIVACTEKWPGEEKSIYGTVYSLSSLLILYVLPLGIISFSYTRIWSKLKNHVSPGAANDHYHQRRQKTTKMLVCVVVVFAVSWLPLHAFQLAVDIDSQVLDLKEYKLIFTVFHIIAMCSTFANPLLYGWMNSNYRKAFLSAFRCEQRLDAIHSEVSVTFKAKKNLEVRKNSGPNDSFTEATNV
# test: cell-based or functional assay
Non-standard residues stand in square brackets, D forms with d. *: point of attachment. Phe(4-NH2) = Nc1ccc(C[C@H](N)C(=O)O)cc1; Tyr(2-F) = N[C@@H](Cc1ccc(O)cc1F)C(=O)O; Cha = N[C@@H](CC1CCCCC1)C(=O)O; Isobutyryl = CC(C)C(=O)*; Abu = CC[C@H](N)C(=O)O; Aib = CC(C)(N)C(=O)O; Bz = O=C(c1ccccc1)*
attributeMeasured: GBA EC50 Ratio (vs PYY(3-36)), [35S]GTPγS
Give the figure by itself; no unit, no explanation.

binder: Bz-RH[Cha]INL[Phe(4-NH2)]TRQR[Cha]-NH2 (SMILES CC[C@H](C)[C@H](NC(=O)[C@H](CC1CCCCC1)NC(=O)[C@H](Cc1c[nH]cn1)NC(=O)[C@H](CCCNC(=N)N)NC(=O)c1ccccc1)C(=O)N[C@@H](CC(N)=O)C(=O)N[C@@H](CC(C)C)C(=O)N[C@@H](Cc1ccc(N)cc1)C(=O)N[C@H](C(=O)N[C@@H](CCCNC(=N)N)C(=O)N[C@@H](CCC(N)=O)C(=O)N[C@@H](CCCNC(=N)N)C(=O)N[C@@H](CC1CCCCC1)C(N)=O)[C@@H](C)O) [Benzoyl-[Cha27,36, Ile28, Phe(4NH2)31]-PYY(25-36)]
valueMeasured: 5.4

May I ask what GBA EC50 Ratio (vs PYY(3-36)), [35S]GTPγS has been recorded for Isobutyryl-R[Abu][Cha][Cha]NL[Aib]TRQR[Tyr(2-F)]-NH2 (SMILES CC[C@H](NC(=O)[C@H](CCCNC(=N)N)NC(=O)C(C)C)C(=O)N[C@@H](CC1CCCCC1)C(=O)N[C@@H](CC1CCCCC1)C(=O)N[C@@H](CC(N)=O)C(=O)N[C@@H](CC(C)C)C(=O)NC(C)(C)C(=O)N[C@H](C(=O)N[C@@H](CCCNC(=N)N)C(=O)N[C@@H](CCC(N)=O)C(=O)N[C@@H](CCCNC(=N)N)C(=O)N[C@@H](Cc1ccc(O)cc1F)C(N)=O)[C@@H](C)O) [Isobutanoyl-[Abu26, Cha27,28, Aib31, Tyr(2F)36]-PYY(25-36)] ?
11

State the recorded GBA EC50 Ratio (vs PYY(3-36)), [35S]GTPγS for this entry: Ac-F[dP]R[Abu][Cha][Cha]NL[Aib]TRQR[Cha]-NH2 (SMILES CC[C@H](NC(=O)[C@H](CCCNC(=N)N)NC(=O)[C@H]1CCCN1C(=O)[C@H](Cc1ccccc1)NC(C)=O)C(=O)N[C@@H](CC1CCCCC1)C(=O)N[C@@H](CC1CCCCC1)C(=O)N[C@@H](CC(N)=O)C(=O)N[C@@H](CC(C)C)C(=O)NC(C)(C)C(=O)N[C@H](C(=O)N[C@@H](CCCNC(=N)N)C(=O)N[C@@H](CCC(N)=O)C(=O)N[C@@H](CCCNC(=N)N)C(=O)N[C@@H](CC1CCCCC1)C(N)=O)[C@@H](C)O) [Ac-[Phe23, D-Pro24, Abu26, Cha27,28,36, Aib31]-PYY(23-36)]
5.9

Requested read-out: GBA EC50 Ratio (vs PYY(3-36)), [35S]GTPγS. Entry: Isobutyryl-R[Abu][Cha][Cha]N[Abu][Aib]TRQR[Cha]-NH2 (SMILES CC[C@H](NC(=O)[C@H](CCCNC(=N)N)NC(=O)C(C)C)C(=O)N[C@@H](CC1CCCCC1)C(=O)N[C@@H](CC1CCCCC1)C(=O)N[C@@H](CC(N)=O)C(=O)N[C@@H](CC)C(=O)NC(C)(C)C(=O)N[C@H](C(=O)N[C@@H](CCCNC(=N)N)C(=O)N[C@@H](CCC(N)=O)C(=O)N[C@@H](CCCNC(=N)N)C(=O)N[C@@H](CC1CCCCC1)C(N)=O)[C@@H](C)O) [Isobutanoyl-[Abu26, Cha27,28,36, Abu30, Aib31]-PYY(25-36)]
21
